System: E. coli ATCC® 8739
Type: cell-based, Escherichia coli
Settings: CLSI broth microdilution, Mueller-Hinton broth, peptide 30 µM, ~6 × 10^6 CFU/mL, 24 h 37 °C, OD600; triplicate, three independent assays; NA = no activity
Ends that are not written are not given here.
assay-metric: E. coli ATCC® 8739 (Inhibition %)

1) SLWGMWR-NH2 [PvAMP7] :: 26.74
2) ILKPFMLRR-NH2 [PvAMP84] :: 24.29
3) GRIFRLLRK-NH2 [PvAMP82] :: 64.01

* * *

Tested on: E. coli ATCC® 25922
Assay type: cell-based, Escherichia coli
Conditions: CLSI broth microdilution, Mueller-Hinton broth, peptide 30 µM, ~6 × 10^6 CFU/mL, 24 h 37 °C, OD600; triplicate, three independent assays; NA = no activity
Ends that are not written are not given here.
Items are presented alongside their recorded E. coli ATCC® 25922 (Inhibition %).
assay-metric: E. coli ATCC® 25922 (Inhibition %)

1. CRKLCFRNRCLTYCRGR-NH2 (disulfide (positions not given here)) [PvAMP172, predicted P. verdolaga AMP] :: 47.43
2. QCRKLCFRNRCLTYCRGRG-NH2 (disulfide (positions not given here)) [PvAMP183, predicted P. verdolaga AMP] :: 64.66
3. SLWGMWR-NH2 [PvAMP7] :: 18.21
4. QCRKLCFRNRCLTYCRGR-NH2 (disulfide (positions not given here)) [PvAMP177, predicted P. verdolaga AMP] :: 56.76
5. CRRVCYKNR CVTYCRG (disulfide) [PvAMP169, predicted P. verdolaga AMP] :: 55.69
6. WKKIKKFF-NH2 [PvAMP66] :: 73.59
